- System: cynomolgus CTGF
- Sequence (as listed by the source): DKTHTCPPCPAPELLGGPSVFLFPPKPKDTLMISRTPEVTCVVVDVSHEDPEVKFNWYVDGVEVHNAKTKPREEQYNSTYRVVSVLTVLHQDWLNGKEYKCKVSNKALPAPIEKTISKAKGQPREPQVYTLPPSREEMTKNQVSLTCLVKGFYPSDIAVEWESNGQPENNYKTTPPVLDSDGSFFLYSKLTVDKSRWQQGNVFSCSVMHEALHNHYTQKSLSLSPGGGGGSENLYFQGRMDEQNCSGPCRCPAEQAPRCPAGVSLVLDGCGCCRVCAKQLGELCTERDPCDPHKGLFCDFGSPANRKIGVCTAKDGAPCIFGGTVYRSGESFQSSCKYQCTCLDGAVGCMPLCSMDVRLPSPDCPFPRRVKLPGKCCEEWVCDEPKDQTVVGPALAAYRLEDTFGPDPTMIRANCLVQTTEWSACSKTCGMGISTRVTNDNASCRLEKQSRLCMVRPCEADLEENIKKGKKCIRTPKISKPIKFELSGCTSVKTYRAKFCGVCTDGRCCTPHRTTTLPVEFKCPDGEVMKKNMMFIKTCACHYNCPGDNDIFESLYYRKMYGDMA
- TEST_NAME: SPR binding kinetics and affinity, cynomolgus CTGF
- MEASUREMENT_CONDITIONS: 25° C., 1:1 binding model
MEASURED_ENDPOINT: cynomolgus CTGF kon (M⁻¹ s⁻¹)
Give your result in M⁻¹ s⁻¹ as a bare value.

SEQ ID NO: 34: optimized CTGF-binding hNGAL lipocalin mutein (protein, lipocalin mutein) QDSTSDLIPAPPLSKVPLQQNFQDNQFQGKWYVVGWAGNVILREDKQPFKMSATIYELKEDKSYDVTEVVFEQKKCHYIIKTFVPGSQPGEFTLGDIKSPPGETSTLVRVVSTNYNQHAMVFFKKVSQNREFFWITLYGRTKELTSELKENFIRFSKSLGLPENHIVFPVPIDQCIDG :: 139000

Data point: SEQ ID NO: 31: optimized CTGF-binding hNGAL lipocalin mutein (protein, lipocalin mutein) QDSTSDLIPAPPLSKVPLQQNFQDNQFQGKWYVVGWAGNVKLREDKQPQKMSATIYELKEDKSYDVTEVVFEQKKCHYIIKTFVPGSQPGEFTAGDIKSPPGYTSSLVRVVSTNYNQHAMVFFKKVSQNREFFWITLYGRTKELTSELKENFIRFSKSLGLPENHIVFPVPIDQCIDG ; cynomolgus CTGF kon = 162000
